- testedOn: HLA-DR4 (DRB*0401), purified from B-lymphoblastic cell line BSM (human)
- measurementProtocol: competition with fluorescent HA308-319 Y→F on purified HLA-DR4
quantityMeasured: IC50 (µM)

INSERT INTO measurements (binder, quantitymeasured, unitsofmeasure, quantitativereadout) VALUES
  ('LRYRFKKHCTLYTAVSSTWHWTGHNVKHKS (modifications not checked) [HPV16 E2 peptide 301-330]', 'IC50', 'µM', 10),
  ('MHGDTPTLHEYMLDLQPETTDL (modifications not checked) [HPV16 E7 peptide 1-22, P03129 1-22]', 'IC50', 'µM', 30),
  ('AIVTLTYDSEWQRDQFLSQVKIPKTITVSTGFMSI (modifications not checked) [HPV16 E2 peptide 331-365]', 'IC50', 'µM', 15),
  ('PAGQAEPDRAHYNIVTFCCKCD (modifications not checked) [HPV16 E7 peptide 41-62, P03129 41-62]', 'IC50', 'µM', 38);
